Assay name: in vitro
Measurement setup: human, Caco-2, Caco-2 (cm/sec)
Where a SMILES comes first, the peptide text is derived from it. Bridges are numbered along the chain shown (N, C = ends). [ ]: non-standard residue; d: D form. The star is where a group is joined. NMeF = CN[C@@H](Cc1ccccc1)C(=O)O; NMeD = CN[C@@H](CC(=O)O)C(=O)O; NMeL = CN[C@@H](CC(C)C)C(=O)O; NMeV = CN[C@H](C(=O)O)C(C)C; NMeA = CN[C@@H](C)C(=O)O; Piperidide = C1CCN(*)CC1; tBu = CC(C)(C)*
Property label: Papp
Please answer in the form of a number followed by its unit of measurement.

## Input Could you tell me which Papp is on file for CC(C)C[C@@H]1NC(=O)[C@H](Cc2ccccc2)N(C)C(=O)[C@H](COC(C)(C)C)NC(=O)[C@H](Cc2ccccc2)N(C)C(=O)[C@H](C)N(C)C(=O)[C@H](CC(C)C)N(C)C(=O)[C@H](C)N(C)C(=O)C[C@@H](C(=O)N2CCCCC2)N(C)C(=O)[C@H](Cc2ccccc2)N(C)C(=O)[C@H]([C@@H](C)O)NC(=O)[C@H](C(C)C)N(C)C1=O [pd213] ([NMeA][NMeL][NMeA][NMeF]S(tBu)[NMeF]L[NMeV]T[NMeF][NMeD]-Piperidide; lactam N-11) ?
## Output 1.3 ×10⁻⁶ cm/s

###

Exercise: for every item that follows, state its recorded Papp.
Assay name: in vitro
Measurement setup: human, Caco-2, Caco-2 (membrane permeability)
*1 amine or outer side, *2 acyl side, *3 side chain or, on linkers, in order; H or OH if unused. Where a SMILES comes first, the peptide text is derived from it. Bridges are numbered along the chain shown (N, C = ends). [ ]: non-standard residue; d: D form. The star is where a group is joined. X12 = O=C([C@H](CCCC(O)C(F)(F)F)N[*:1])[*:2]; NMeF = CN[C@@H](Cc1ccccc1)C(=O)O; NMeGABA = CN(CCCC(=O)[*:2])[*:1]; NMeL = CN[C@@H](CC(C)C)C(=O)O; Piperidide = C1CCN(*)CC1; NBuGly = CCCCNCC(=O)O; Sar = CNCC(=O)O
Give bare numbers, in ×10⁻⁶ cm/s.

| Molecule | Property label | Assay value |
| --- | --- | --- |
| CC[C@H](C)[C@@H]1NC(=O)[C@H](CC(C)C)N(C)C(=O)CCCN(C)C(=O)C[C@@H](C(=O)N2CCCCC2)NC(=O)[C@H](CC(C)C)N(C)C(=O)[C@H](CC(C)C)N(C)C(=O)[C@H]([C@@H](C)O)NC(=O)[C@H](CC(C)C)N(C)C(=O)[C@H](CCCC(O)C(F)(F)F)NC(=O)[C@H](Cc2ccccc2)N(C)C(=O)[C@H](Cc2ccccc2)N(C)C1=O (stereo partly drawn) [Compound D03] ([NMeGABA][NMeL]I[NMeF][NMeF][X12][NMeL]T[NMeL][NMeL]D-Piperidide; lactam N-11) | Papp | 0.33 |

## Input Could you tell me which Papp is on file for CCCCN1CC(=O)N(C)[C@@H](Cc2ccccc2)C(=O)N(C)[C@@H](CC(C)C)C(=O)N[C@@H](CCCC(O)C(F)(F)F)C(=O)N(C)[C@@H](CC(C)C)C(=O)N[C@H](C(=O)N2CCCCC2)CC(=O)N(C)CC(=O)N(C)[C@@H](Cc2ccccc2)C(=O)N[C@@H]([C@@H](C)CC)C(=O)N(C)[C@@H](CC(C)C)C(=O)N[C@@H]([C@@H](C)O)C1=O (stereo partly drawn) [Compound D07] ([Sar][NMeF]I[NMeL]T[NBuGly][NMeF][NMeL][X12][NMeL]D-Piperidide; lactam N-11) ?
## Output 0.37
